Measured inhibition of growth at 10 µM values are reported for all entries that follow.
Tested on: HL-60(TB)
Experiment: Growth inhibition of human HL-60(TB) cells at 10 uM after 48 hrs by coulter counter analysis
Format: functional
Conditions: HL-60, 48 h, read-out: GI
attributeMeasured: inhibition of growth at 10 µM

>>> assayresult("O=C(CN1CCN(c2ccccc2)CC1)Nc1nc(-c2ccccc2)cs1")
"22%"
>>> assayresult("CCOC(=O)c1sc(NC(=O)C(C)N(CC)CC)nc1C (centres undefined)")
"< 10%"
>>> assayresult("O=C(CCN1CCN(c2ccccc2)CC1)Nc1nc(-c2ccccc2)cs1")
"< 10%"
>>> assayresult("CC(C(=O)Nc1nccs1)N1CCN(C)CC1 (centres undefined)")
"11.2%"
>>> assayresult("CCOC(=O)c1sc(NC(=O)CCN2CCN(C)CC2)nc1C")
"< 10%"
>>> assayresult("CCOC(=O)c1sc(NC(=O)CCN2CCN(c3ccccc3)CC2)nc1C")
"< 10%"
>>> assayresult("CCOC(=O)c1sc(NC(=O)CCN2CCOCC2)nc1C")
"< 10%"
>>> assayresult("CCOC(=O)c1sc(NC(=O)C(C)N2CCN(C)CC2)nc1C (centres undefined)")
"< 10%"
>>> assayresult("CCOC(=O)c1sc(NC(=O)C(C)N2CCCCC2)nc1C (centres undefined)")
"< 10%"
>>> assayresult("Cc1csc(NC(=O)C(C)N2CCN(c3ccccc3)CC2)n1 (centres undefined)")
"< 10%"
>>> assayresult("Cc1csc(NC(=O)C(C)N2CCN(C)CC2)n1 (centres undefined)")
"< 10%"
>>> assayresult("O=C(CCCl)Nc1nc(-c2ccccc2)cs1")
"17.9%"
>>> assayresult("Cc1cnc(NC(=O)CN2CCN(c3ccccc3)CC2)s1")
"< 10%"
>>> assayresult("Cc1cnc(NC(=O)CCN2CCN(c3ccccc3)CC2)s1")
"< 10%"
>>> assayresult("CCOC(=O)c1sc(NC(=O)CN(C)C)nc1C")
"< 10%"
>>> assayresult("Cc1cnc(NC(=O)CN2CCN(C)CC2)s1")
"< 10%"
>>> assayresult("CC(C(=O)Nc1nccs1)N1CCN(c2ccccc2)CC1 (centres undefined)")
"< 10%"
>>> assayresult("CN1CCN(CCC(=O)Nc2nc(-c3ccccc3)cs2)CC1")
"11.6%"
>>> assayresult("CCOC(=O)c1sc(NC(=O)C(C)N2CCOCC2)nc1C (centres undefined)")
"< 10%"

---

System: RXF 393
Assay: Growth inhibition of human RXF393 cells at 10 uM after 48 hrs by coulter counter analysis
Type: functional
Conditions: RXF 393, 48 h, read-out: GI
Listed next: entries and their corresponding inhibition of growth at 10 µM.
attributeMeasured: inhibition of growth at 10 µM

>>> assayresult("Cc1csc(NC(=O)C(C)N2CCN(c3ccccc3)CC2)n1 (centres undefined)")
"< 10%"
>>> assayresult("CCOC(=O)c1sc(NC(=O)CN(C)C)nc1C")
"< 10%"
>>> assayresult("CN1CCN(CCC(=O)Nc2nc(-c3ccccc3)cs2)CC1")
"11.1%"
>>> assayresult("Cc1cnc(NC(=O)CN2CCN(C)CC2)s1")
"< 10%"
>>> assayresult("CC(C(=O)Nc1nccs1)N1CCN(c2ccccc2)CC1 (centres undefined)")
"< 10%"
>>> assayresult("O=C(CCN1CCN(c2ccccc2)CC1)Nc1nc(-c2ccccc2)cs1")
"11.8%"
>>> assayresult("CCOC(=O)c1sc(NC(=O)C(C)N2CCCCC2)nc1C (centres undefined)")
"< 10%"
>>> assayresult("O=C(CN1CCN(c2ccccc2)CC1)Nc1nc(-c2ccccc2)cs1")
"< 10%"
>>> assayresult("Cc1cnc(NC(=O)CN2CCN(c3ccccc3)CC2)s1")
"< 10%"
>>> assayresult("Cc1csc(NC(=O)C(C)N2CCN(C)CC2)n1 (centres undefined)")
"< 10%"
>>> assayresult("CC(C(=O)Nc1nccs1)N1CCN(C)CC1 (centres undefined)")
"< 10%"
>>> assayresult("Cc1cnc(NC(=O)CCN2CCN(c3ccccc3)CC2)s1")
"< 10%"
>>> assayresult("CCOC(=O)c1sc(NC(=O)C(C)N2CCOCC2)nc1C (centres undefined)")
"< 10%"
>>> assayresult("CCOC(=O)c1sc(NC(=O)CCN2CCN(C)CC2)nc1C")
"< 10%"
>>> assayresult("CCOC(=O)c1sc(NC(=O)C(C)N2CCN(C)CC2)nc1C (centres undefined)")
"< 10%"
>>> assayresult("CCOC(=O)c1sc(NC(=O)C(C)N(CC)CC)nc1C (centres undefined)")
"< 10%"
>>> assayresult("CCOC(=O)c1sc(NC(=O)CCN2CCOCC2)nc1C")
"< 10%"
>>> assayresult("CCOC(=O)c1sc(NC(=O)CCN2CCN(c3ccccc3)CC2)nc1C")
"< 10%"
>>> assayresult("O=C(CCCl)Nc1nc(-c2ccccc2)cs1")
"80.4%"
